- assayTarget: Presenilin-2-comprised γ-secretase (Homo sapiens)
- Construct: expressed in transfected cells; host or cells: mouse fibroblasts derived from PS1/PS2 double knockout cells, pCF vector
- Sequence (P49810 1-297 limits assumed): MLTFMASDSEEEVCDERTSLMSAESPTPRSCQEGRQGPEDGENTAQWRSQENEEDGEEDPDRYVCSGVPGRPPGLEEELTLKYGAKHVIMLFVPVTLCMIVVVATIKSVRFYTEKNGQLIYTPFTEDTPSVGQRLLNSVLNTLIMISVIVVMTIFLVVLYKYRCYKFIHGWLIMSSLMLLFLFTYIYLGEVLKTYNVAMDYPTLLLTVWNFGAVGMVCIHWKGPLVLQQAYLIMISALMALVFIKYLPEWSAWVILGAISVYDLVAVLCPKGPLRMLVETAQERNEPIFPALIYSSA
- Sequence (P49810 298-448 limits assumed): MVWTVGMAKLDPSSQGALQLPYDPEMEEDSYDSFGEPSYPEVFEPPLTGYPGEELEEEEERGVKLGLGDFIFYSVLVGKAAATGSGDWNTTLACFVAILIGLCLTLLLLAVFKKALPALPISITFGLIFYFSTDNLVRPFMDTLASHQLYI
- Sequence (P57716 28-708 partner): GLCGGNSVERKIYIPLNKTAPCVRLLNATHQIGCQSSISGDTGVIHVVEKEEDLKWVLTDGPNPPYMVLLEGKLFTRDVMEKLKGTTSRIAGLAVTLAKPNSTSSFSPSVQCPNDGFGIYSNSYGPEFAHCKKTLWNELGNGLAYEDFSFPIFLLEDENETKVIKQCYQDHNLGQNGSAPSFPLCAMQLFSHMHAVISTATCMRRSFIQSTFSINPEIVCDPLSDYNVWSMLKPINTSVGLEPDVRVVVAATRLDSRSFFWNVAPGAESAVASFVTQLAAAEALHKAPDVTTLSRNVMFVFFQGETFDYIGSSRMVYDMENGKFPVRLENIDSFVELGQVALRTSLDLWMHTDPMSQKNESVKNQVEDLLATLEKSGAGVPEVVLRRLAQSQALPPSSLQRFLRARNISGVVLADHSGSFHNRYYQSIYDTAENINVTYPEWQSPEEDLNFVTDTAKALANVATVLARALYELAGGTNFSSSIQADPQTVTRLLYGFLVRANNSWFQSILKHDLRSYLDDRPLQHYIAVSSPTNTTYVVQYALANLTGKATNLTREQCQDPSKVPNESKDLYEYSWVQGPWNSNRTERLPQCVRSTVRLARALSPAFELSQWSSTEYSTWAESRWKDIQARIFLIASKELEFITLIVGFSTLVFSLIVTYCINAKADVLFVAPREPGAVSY
- Sequence (Q8BVF7 whole entry partner): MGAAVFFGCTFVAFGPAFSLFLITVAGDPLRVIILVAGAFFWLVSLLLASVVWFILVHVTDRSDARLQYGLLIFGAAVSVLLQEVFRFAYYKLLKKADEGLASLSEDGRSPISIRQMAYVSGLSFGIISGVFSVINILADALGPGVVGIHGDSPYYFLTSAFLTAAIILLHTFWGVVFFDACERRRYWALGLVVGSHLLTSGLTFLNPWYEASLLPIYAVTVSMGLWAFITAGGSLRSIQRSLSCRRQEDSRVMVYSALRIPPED
- Sequence (Q9CQR7 whole entry partner): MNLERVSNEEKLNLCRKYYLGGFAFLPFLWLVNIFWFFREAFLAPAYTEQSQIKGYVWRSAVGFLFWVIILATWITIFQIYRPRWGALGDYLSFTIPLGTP
- measurementNotes: Aβ1-x ELISA in Presenilin-2 transfected PS1/PS2 double knockout mouse fibroblasts
- Assay type: cell-based
- conditionParameters: column B; Aβ1-x, Presenilin-2 transfected cells, overnight; read-out: PS2 EC50* (nM) B
propertyMeasured: log10 EC50 (log10 of the value in nM)

1. COc1ccc(CN([C@@H]2CCCCNC2=O)S(=O)(=O)c2ccc(Cl)cc2)cc1OC: 3.30
2. O=C1NCCCC[C@H]1N(Cc1ccc(-c2nccs2)cc1)S(=O)(=O)c1ccc(Cl)cc1: 2.61
3. O=C1NCCCC[C@H]1N(Cc1ccc(Br)cc1)S(=O)(=O)c1ccc(Cl)cc1: 3.53
4. Cn1nnc2cc(CN([C@@H]3CCCCNC3=O)S(=O)(=O)c3ccc(Cl)cc3)ccc21: 2.97
5. COc1ccc(CN(C2CCCCC2C)S(=O)(=O)c2ccc(Cl)cc2)cc1OC (stereo not drawn): 2.61
6. CSc1ncccc1-c1nc(CN([C@@H]2CCCCNC2=O)S(=O)(=O)c2ccc(Cl)cc2)no1: 3.41
7. O=C(NCc1ccccc1)c1ccc(CN([C@@H]2CCCCNC2=O)S(=O)(=O)c2ccc(Cl)cc2)cc1: 1.58
8. Cn1nnc2cc(CN([C@@H]3CCCCNC3=O)S(=O)(=O)c3ccc(Cl)s3)ccc21: 3.73
9. Cc1nc(-c2ccc(CN([C@@H]3CCCCNC3=O)S(=O)(=O)c3ccc(Cl)cc3)cc2)no1: 2.91
